Numbers sourced from paper PMC12693327.

Assay: PAMPA membrane permeability
Format: in vitro ADME
Details: 100 µM in PBS pH 7.4, 5 h, read-out: Pe ± SD
measuredProperty: Papp at 5 h, 100 µM (×10⁻⁶ cm/s)

>  <compound>
OC(CNCCc1c[nH]c2ccccc12)COc1ccc(Oc2ccccc2)cc1 (stereo not shown)

>  <resultUnits>
×10⁻⁶ cm/s

>  <measuredResult>
1.1

$$$$

---

Molecular target: CYP2D6 (Homo sapiens)
Sequence (P10635 whole entry): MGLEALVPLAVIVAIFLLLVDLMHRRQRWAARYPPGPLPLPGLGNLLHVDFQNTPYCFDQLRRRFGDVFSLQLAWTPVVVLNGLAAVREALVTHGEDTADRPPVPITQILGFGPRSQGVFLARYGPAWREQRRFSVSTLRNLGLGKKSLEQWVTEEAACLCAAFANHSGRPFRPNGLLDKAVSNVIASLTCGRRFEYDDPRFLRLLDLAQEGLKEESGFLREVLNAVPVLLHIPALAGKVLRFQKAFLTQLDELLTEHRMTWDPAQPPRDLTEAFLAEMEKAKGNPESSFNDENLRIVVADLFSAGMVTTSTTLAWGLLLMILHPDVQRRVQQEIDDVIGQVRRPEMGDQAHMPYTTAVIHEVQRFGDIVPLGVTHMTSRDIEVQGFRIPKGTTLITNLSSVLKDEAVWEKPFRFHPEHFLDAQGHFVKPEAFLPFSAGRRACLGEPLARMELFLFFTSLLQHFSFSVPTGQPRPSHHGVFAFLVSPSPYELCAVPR
Assay: in vitro
Details: human

>  <compound>
OC(CNCCc1c[nH]c2ccccc12)COc1ccc(Oc2ccccc2)cc1 (stereo not shown) [SERAAK2]

>  <inhibition at 10 µM>
90%

$$$$
